Target: N-terminally GST-tagged HCK (75-526) (Homo sapiens (Human))
Sequence (P08631 75-526): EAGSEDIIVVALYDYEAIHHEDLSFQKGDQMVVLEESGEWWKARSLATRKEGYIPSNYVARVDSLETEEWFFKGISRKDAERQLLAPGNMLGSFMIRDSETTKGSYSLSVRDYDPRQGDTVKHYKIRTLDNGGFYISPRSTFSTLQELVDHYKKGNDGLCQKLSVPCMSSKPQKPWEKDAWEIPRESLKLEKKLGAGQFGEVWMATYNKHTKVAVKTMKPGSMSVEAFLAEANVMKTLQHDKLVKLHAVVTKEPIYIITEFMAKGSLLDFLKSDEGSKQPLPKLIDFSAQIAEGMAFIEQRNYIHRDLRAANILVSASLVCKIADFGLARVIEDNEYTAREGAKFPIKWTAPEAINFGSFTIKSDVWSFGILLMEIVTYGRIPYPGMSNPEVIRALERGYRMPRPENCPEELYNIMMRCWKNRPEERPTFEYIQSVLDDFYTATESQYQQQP
Assay: HCK Kinase Assay (ProFluor Src-Family Kinase Assay)
Assay type: biochemical
Conditions: HCK inhibitory activity, 50 μM ATP; read-out: HCK Activity
endpoint label: IC50

Sample records with IC50:
CN1CCN([C@H]2CC[C@H](n3cc(-c4ccc(Oc5ccccc5)cc4F)c4c(N)ncnc43)CC2)CC1 :: < 50 nM
Nc1ncnc2c1c(-c1ccc(Oc3ccccc3)cc1)cn2[C@H]1CC[C@H](N2CCNCC2=O)CC1 :: < 50 nM
NC(=O)CC1(N)CCC(n2cc(-c3ccc(Oc4ccccc4)cc3)c3c(N)ncnc32)CC1 (centres unmarked) :: < 50 nM
Nc1ncnc2c1c(-c1ccc(Oc3ccccc3)cc1)cn2[C@H]1CC[C@H](N2CCN3CCC[C@@H]3C2)CC1 :: < 50 nM
Nc1ncnc2c1c(-c1ccc(Oc3ccccc3)cc1)cn2[C@H]1CC[C@H](N2CCSCC2)CC1 :: 250 to 10000 nM
Nc1ncnc2c1c(-c1ccc(Oc3ccccc3)cc1)cn2[C@H]1CC[C@@H](N2CCC[C@@H](N)C2)CC1 :: 50 to 250 nM
Nc1ncnc2c1c(-c1ccc(Oc3ccccc3)cc1)cn2[C@H]1CC[C@@H](N2CCN(N)CC2)CC1 :: < 50 nM
Nc1ncnc2c1c(-c1ccc(Oc3ccccc3)cc1)cn2[C@H]1CC[C@H](N2CCN3C(=O)CCC3C2)CC1 (some centres unmarked) :: 50 to 250 nM

# IC50 lookup, item CN[C@@H]1CCCN([C@H]2CC[C@H](n3cc(-c4ccc(Oc5ccccc5)cc4)c4c(N)ncnc43)CC2)C1 < 50 nM

For the compound shown here, C[C@H]1CN([C@H]2CC[C@H](n3nc(-c4ccc(Oc5ccccc5)cc4)c4c(N)ncnc43)CC2)CCN1 , give the reported IC50. < 50 nM

Entry under review: Nc1ncnc2c1c(-c1ccc(Oc3ccccc3)cc1)cn2[C@H]1CC[C@@H](N2CCC[C@H](N)C2)CC1 . Reported IC50? < 50 nM

IC50 lookup needed for CN(C)[C@H]1CN([C@H]2CC[C@H](n3cc(-c4ccc(Oc5ccccc5)cc4)c4c(N)ncnc43)CC2)C[C@H]1O , thanks. < 50 nM

Sample CN1CCN([C@H]2CC[C@H](n3cc(-c4ccc(Oc5ccccc5)cc4Cl)c4c(N)ncnc43)CC2)CC1 — what was its IC50? < 50 nM

I have this compound here, Nc1ncnc2c1c(-c1ccc(Oc3ccccc3)cc1)cn2[C@H]1CC[C@H](N2CCC(S(N)(=O)=O)CC2)CC1 , and I need its recorded IC50. 50 to 250 nM
